Cited source: the SangsterLogP compilation

Parameter: logP
Give the figure by itself; no unit, no explanation.

Check out these entries, answers already filled in.
CCOc1cncc(OC)n1 | 1.98
COC(=O)c1cncc(C)n1 | 0.1
COc1cncc(C#N)n1 | 0.95

### Prompt Please report the recorded logP for CSc1nccnc1C .
### Response 1.81

### Prompt Request: CCCCc1nc(C#N)c(C#N)nc1Cl
### Response 2.89

### Prompt Request: CCOc1cncc(Cl)n1
### Response 2.22

### Prompt Request: CCCc1nccnc1C
### Response 1.57

### Prompt Request: CCCCc1nccnc1C
### Response 2.1

### Prompt Request: Cc1cnc(C)c(C)n1
### Response 0.95

====

Assay overview: method code SF-AS, from DOI: 10.1002/jps.2600800814, PMID: 1791539
The molecules listed here are annotated with their logP.
Give the figure by itself; no unit, no explanation.

Check out these entries, answers already filled in.
Cc1cnc(C(N)=O)cn1 | -0.25
N#Cc1nccnc1C#N | 0.38
CCOC(=O)c1nccnc1C(=O)OCC | 0.65

### Prompt Please report the recorded logP for Cc1cnc(C#N)cn1 .
### Response 0.26

### Prompt Request: COc1cncc(C(N)=O)n1
### Response 0.13

### Prompt Request: COC(=O)c1cnc(C)cn1
### Response 0.17

====

The molecules listed here are annotated with their logP.
Assay overview: method code SF-AS, from DOI: 10.1002/jps.2600800814, PMID: 1791539
Give the figure by itself; no unit, no explanation.

### Prompt Please report the recorded logP for CC(=O)Nc1cncc(Cl)n1 .
### Response 1.1

### Prompt Request: CN(C)c1cncc(C(N)=O)n1
### Response 0.38

### Prompt Request: Cc1cncc(N)n1
### Response 0.35

### Prompt Request: Nc1cncc(Cl)n1
### Response 0.95

### Prompt Request: Cc1cnc(Cl)cn1
### Response 1.08

### Prompt Request: Cc1cncc(C(N)=O)n1
### Response -0.13

### Prompt Request: CCOC(=O)c1cncc(OC)n1
### Response 1.2

### Prompt Request: COc1cnc(Cl)cn1
### Response 1.52

### Prompt Request: COC(=O)c1cncc(N(C)C)n1
### Response 0.9

====

Assay overview: method code SF-AS, from DOI: 10.1002/jps.2600800814, PMID: 1791539
Parameter: logP
Give the figure by itself; no unit, no explanation.

Check out these entries, answers already filled in.
CCc1nccnc1C | 1.07
Cc1cnc(C)c(Cl)n1 | 1.5
Cc1nccnc1OC(C)C | 2.24
Clc1cncc(Cl)n1 | 1.53
N#Cc1cncc(Cl)n1 | 0.79
Nc1cncc(N)n1 | -0.45

### Prompt Please report the recorded logP for Cc1cncc(N(C)C)n1 .
### Response 1.57

### Prompt Request: CCCOc1cncc(Cl)n1
### Response 2.71

### Prompt Request: COC(=O)c1cncc(Cl)n1
### Response 0.47

====

Assay overview: method code SF-AS, from DOI: 10.1002/jps.2600800814, PMID: 1791539
Labelling field: enter Met if recorded logP is less than 0.6. Enter Not met if it equals or exceeds that cut-off.

Solved entries (count: 3):
COc1cncc(N(C)C)n1 | Not met
CCOc1nccnc1C | Not met
Cc1nccnc1C | Met

### Prompt Problem: For the compound CCc1ncc(C)nc1CC , is logP under 0.6?
### Response Not met

### Prompt Request: COC(=O)c1nccnc1C(=O)OC
### Response Met

### Prompt Request: CCOc1cncc(OCC)n1
### Response Not met

### Prompt Request: Cc1cncc(C#N)n1
### Response Met

### Prompt Request: Cc1cncc(C)n1
### Response Met
